FYI, the data here is from paper PMC12141489.

Target: Ab4 (humanized antibody) (human)
Experiment: SPR
Where no end group is shown, it is not given here. The star is where a group is joined. Biotin = O=C1N[C@H]2[C@H](CS[C@H]2CCCCC(=O)*)N1
ENDPOINT_NAME: Kd (nM)

[[record]]
binder = "RDSDSNCSSEPGFWAHPPGAQK(Biotin) [Peptide-biotin (…{Lys(biotin)})]"
endpoint_name = "Kd"
endpoint_result = 7

